test.summary: pKa estimation by absorption spectrophotometry
Assay type: physicochemical
quantity.name: pKa

Quick check: pKa of COc1ccc(OCC2=C(C(F)F)C(=O)c3ccccc3C2=O)cc1C(F)(F)F ?
~7.1

###

Readings of pIC50 for the listed compounds
assayed.target: UniProt:Q16881
test.summary: hTrxR DTNB assay
Assay type: biochemical
pIC50 here: minus log base 10 of the concentration, concentration in moles per litre.

structure.string | measured.value
CC1=C(COc2ccc(C(=O)O)cc2)C(=O)c2ccccc2C1=O | 5.52
COc1c(F)cc(OCC2=C(C)C(=O)c3ccccc3C2=O)cc1F | 5.70

# context switch: different compound, same pIC50
# lookup: pIC50 of CC1=C(COc2ccc(Br)cc2)C(=O)c2ccccc2C1=O
6.10

###

test.summary: Cytotoxicity against human MRC-5 cells
Type: cell-based
condition.details: human lung MRC-5 fibroblasts (MRC-5SV2 cells)
Quick reference: IC50 at 3 days of the listed items.
Give the number; µM is assumed, so skip it.

Please review the following examples before continuing.
structure.string | IC50 at 3 days (µM)
N#Cc1ccc(OCC2=C(C(F)F)C(=O)c3ccccc3C2=O)cc1 | 6.7
COc1ccc(OCC2=C(C(F)F)C(=O)c3ccccc3C2=O)cc1C(F)(F)F | 11.2

Requested read-out: IC50 at 3 days. Entry: CC1=C(COc2ccc(C(=O)O)cc2)C(=O)c2ccccc2C1=O
6.55

###

test.summary: Cyclic voltammetry of menadione derivatives
Type: physicochemical
condition.details: DMSO, 0.1 M n-Bu4NPF6, v = 200 mV s^−1; first wave
For each record, check the reported Ipc1/Ipa1: if it is below 2 write Satisfied, else write Not satisfied.

Below are worked cases with known answers.
molecule | classification
COc1ccc(OCC2=C(C)C(=O)c3ccccc3C2=O)cc1C(F)(F)F [Compound 7] | Not satisfied
CC1=C(COc2ccc(C#N)cc2)C(=O)c2ccccc2C1=O [Compound 2] | Not satisfied
COc1ccc(OCC2=C(C(F)F)C(=O)c3ccccc3C2=O)cc1C(F)(F)F [Compound 9] | Satisfied
CC1=C(COc2ccc(Br)cc2)C(=O)c2ccccc2C1=O [Compound 5] | Satisfied
CC1=C(COc2ccc(C(=O)O)cc2)C(=O)c2ccccc2C1=O [Compound 1] | Satisfied

In plain terms, does N#Cc1ccc(OCC2=C(C(F)F)C(=O)c3ccccc3C2=O)cc1 [Compound 8] come in under 2 for Ipc1/Ipa1?
Not satisfied

###

assayed.target: Placenta wild type hTrxR (Homo sapiens, UniProt Q16881)
Sequence (Q16881 151-649): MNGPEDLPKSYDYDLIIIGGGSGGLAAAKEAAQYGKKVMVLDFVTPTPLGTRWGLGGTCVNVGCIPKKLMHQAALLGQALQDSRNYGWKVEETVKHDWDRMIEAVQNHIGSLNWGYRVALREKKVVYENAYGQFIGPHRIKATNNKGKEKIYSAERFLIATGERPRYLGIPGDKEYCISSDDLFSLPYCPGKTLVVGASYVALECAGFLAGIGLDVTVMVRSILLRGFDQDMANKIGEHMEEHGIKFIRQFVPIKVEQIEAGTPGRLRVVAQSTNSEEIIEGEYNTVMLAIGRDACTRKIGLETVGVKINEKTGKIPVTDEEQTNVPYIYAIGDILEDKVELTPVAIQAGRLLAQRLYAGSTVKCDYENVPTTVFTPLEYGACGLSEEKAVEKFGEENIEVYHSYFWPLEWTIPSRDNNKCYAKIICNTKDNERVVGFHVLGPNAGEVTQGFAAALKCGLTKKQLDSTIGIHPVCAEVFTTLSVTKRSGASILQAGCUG
test.summary: hTrxR DTNB assay
Type: biochemical
Quick reference for IC50 among some compounds
Report the value in nM with no unit label.

Some compounds with known IC50 results, for comparison:
structure.string | assayed.target | IC50 / nM
CC1=C(COc2ccc(C#N)cc2)C(=O)c2ccccc2C1=O | Placenta wild type hTrxR (Homo sapiens, UniProt Q16881) | 1200
COc1ccc(OCC2=C(C)C(=O)c3ccccc3C2=O)cc1C(F)(F)F | Placenta wild type hTrxR (Homo sapiens, UniProt Q16881) | 1500
CC1=C(COc2ccc(Cl)cc2)C(=O)c2ccccc2C1=O | Placenta wild type hTrxR (Homo sapiens, UniProt Q16881) | 700
N#Cc1ccc(OCC2=C(C(F)F)C(=O)c3ccccc3C2=O)cc1 | Placenta wild type hTrxR (Homo sapiens, UniProt Q16881) | 14

Item CC1=C(COc2cccc(C(F)(F)F)c2)C(=O)c2ccccc2C1=O with Placenta wild type hTrxR (Homo sapiens, UniProt Q16881) - IC50?
1500

These measurements were taken from paper PMC4804716.
